Attribution: the supplement of paper PMC10065799

tested on: Fer (mouse); experiment: phosphorylation enrichment, bacterial display (enrichment ratio); higher = better substrate or ligand; peptides without Tyr show the background;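 note: 11-residue human phosphosite peptides and single-mutation variants displayed on the E. coli surface, counted by deep sequencing, each peptide's frequency after selection divided by its frequency in the unselected input library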;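 note: frequency after pTyr selection over input frequency; kinase dosed for 20-30% of maximal phosphorylation in three min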
value.type: phosphorylation enrichment
Reply with the value as a number alone.

### Prompt Lab note: need phosphorylation enrichment for IAAEFYDNLPH [DEGS1_Y284_YF] on Fer (mouse), anyone have it?
### Response 1.12

### Prompt Also LERYIYNRQEF [HLA-DPB1_Y59_E62Q] , if possible.
### Response 0.772

### Prompt Quick one: PGAPAYCVLME [MYO5A_Y1245_R1246C]
### Response 0.876

### Prompt And for SSSAIYDNPDL [DCP1B_Y191_N195D] ?
### Response 6.58

### Prompt Likewise for GLSSAYGDLTS [KRT8_Y427_G429D] ?
### Response 0.479

### Prompt And PVKSEYPSIKL [NPC2_Y119] ?
### Response 0.433

### Prompt EPGSLYGCGGG [ATM_Y2019_D2016G] ?
### Response 0.818
